Test: Passive membrane permeation assay (PAMPA)
Format: in vitro ADME
Conditions: pre-coated PAMPA plate, PBS pH 7.4, 200 µM, 25 °C, 5 h
Structures can show the parent of a compound that is named as a salt.
Catalogue of molecules with associated R (mass retention)

- Molecule: "CCN(C)CCc1c[nH]c2cccc(OC(=O)C(C)(C)C)c12"
  Unit Annotation: "%"
  R (mass retention): -2
- Molecule: "CCN(C)CCc1c[nH]c2cccc(O)c12 [4-OH-MET fumarate 17, reference compound]"
  Unit Annotation: "%"
  R (mass retention): 29
- Molecule: "CCCC(=O)OCOc1cccc2[nH]cc(CCN(C)CC)c12 [Compound 15d]"
  Unit Annotation: "%"
  R (mass retention): 6
- Molecule: "CN(C)CCc1c[nH]c2cccc(OCOC(=O)C(C)(C)C)c12 [Compound 15a]"
  Unit Annotation: "%"
  R (mass retention): 4
- Molecule: "CCN(C)CCc1c[nH]c2cccc(OC(=O)CC(C)(C)C)c12"
  Unit Annotation: "%"
  R (mass retention): 1
- Molecule: "CCN(C)CCc1c[nH]c2cccc(OC(=O)c3ccccc3)c12"
  Unit Annotation: "%"
  R (mass retention): 6
- Molecule: "CCCC(=O)Oc1cccc2[nH]cc(CCN(C)CC)c12"
  Unit Annotation: "%"
  R (mass retention): 4
- Molecule: "CCN(C)CCc1c[nH]c2cccc(OCOC(=O)C(C)(C)C)c12 [Compound 15c]"
  Unit Annotation: "%"
  R (mass retention): 2
- Molecule: "CCN(C)CCc1c[nH]c2cccc(OC(=O)CC(C)C)c12"
  Unit Annotation: "%"
  R (mass retention): 2
- Molecule: "CCN(C)CCc1c[nH]c2cccc(OC(C)=O)c12 [Compound 8a, reference compound]"
  Unit Annotation: "%"
  R (mass retention): 4
- Molecule: "Cn1c(=O)c2c(ncn2C)n(C)c1=O [Caffeine, reference compound]"
  Unit Annotation: "%"
  R (mass retention): 1
- Molecule: "O=C1NC(=O)C(c2ccccc2)(c2ccccc2)N1 [Phenytoin, reference compound]"
  Unit Annotation: "%"
  R (mass retention): 57
- Molecule: "CCN(C)CCc1c[nH]c2cccc(OC(=O)C(C)C)c12"
  Unit Annotation: "%"
  R (mass retention): 4
- Molecule: "CCCCCC(=O)Oc1cccc2[nH]cc(CCN(C)CC)c12 [Compound 8c, reference compound]"
  Unit Annotation: "%"
  R (mass retention): 7

* * *

Assay: Passive membrane permeation assay (PAMPA)
Type: in vitro ADME
Conditions: pre-coated PAMPA plate, PBS pH 7.4, 200 µM, 25 °C, 5 h; mean ± standard deviation
Method: The passive membrane permeability was evaluated with a pre-coated PAMPA plate system (BD Gentest, BD Bioscience, Germany) following the guidelines of the manufacturer and a previous literature report (cf. Kühl et al. Eur. J. Med. Chem. 2022, 240, 114585). […] Analyte concentrations were determined on a Jasco HPLC system equipped with a UV detector and an RP-18 column (Chromolith® Performance RP-18e, 100x4.6 mm) using one of the gradients listed in Table 2. […]
Assay Endpoint: Pe

- Molecule: "CCN(C)CCc1c[nH]c2cccc(OCOC(=O)C(C)(C)C)c12 [Compound 15c]"
  Assay Endpoint: "Pe"
  Observed Result: "9.7 ± 0.6 10^-6 cm/s"
- Molecule: "CCN(C)CCc1c[nH]c2cccc(OC(=O)C(C)C)c12"
  Assay Endpoint: "Pe"
  Observed Result: "at least 8 10^-6 cm/s"
- Molecule: "CCCC(=O)OCOc1cccc2[nH]cc(CCN(C)CC)c12 [Compound 15d]"
  Assay Endpoint: "Pe"
  Observed Result: "8.0 ± 0.3 10^-6 cm/s"
- Molecule: "CCCC(=O)OCOc1cccc2[nH]cc(CCN(C)C)c12 [Compound 15b]"
  Assay Endpoint: "Pe"
  Observed Result: "8.1 ± 0.8^b 10^-6 cm/s"
- Molecule: "CCCC(=O)Oc1cccc2[nH]cc(CCN(C)CC)c12"
  Assay Endpoint: "Pe"
  Observed Result: "at least 8 10^-6 cm/s"
- Molecule: "NS(=O)(=O)c1cc(C(=O)O)c(NCc2ccco2)cc1Cl [Furosemide, reference compound]"
  Assay Endpoint: "Pe"
  Observed Result: "-0.4 ± 0.3^c 10^-6 cm/s"
- Molecule: "CN(C)CCc1c[nH]c2cccc(OCOC(=O)C(C)(C)C)c12 [Compound 15a]"
  Assay Endpoint: "Pe"
  Observed Result: "9.1 ± 0.5 10^-6 cm/s"

* * *

System: HuH-7 cells
Assay: Cell viability in HuH-7 cells (CellTiter-Blue)
Type: cell-based, human
Conditions: 50 µM, 2 h incubation; mean of triplicates ± standard deviation
Counter-ions that a name gives are not always drawn.
Assay Endpoint: Cell Viability in HuH7 at 50 µM, 2 h Incubation (%)

- Compound: "NS(=O)(=O)c1cc(C(=O)O)c(NCc2ccco2)cc1Cl [Furosemide, reference compound]"
  Observed Result: 121.9
- Compound: "CCN(C)CCc1c[nH]c2cccc(OC(C)=O)c12 [Compound 8a, reference compound]"
  Observed Result: 88.7
- Compound: "CCN(C)CCc1c[nH]c2cccc(OC(=O)CC(C)C)c12"
  Observed Result: 81.7
- Compound: "CCN(C)CCc1c[nH]c2cccc(O)c12 [4-OH-MET fumarate 17, reference compound]"
  Observed Result: 91.0
- Compound: "CCN(C)CCc1c[nH]c2cccc(OC(=O)C(C)(C)C)c12"
  Observed Result: 80.4
- Compound: "CCN(C)CCc1c[nH]c2cccc(OC(=O)C(C)C)c12"
  Observed Result: 91.4
- Compound: "CCCC(=O)OCOc1cccc2[nH]cc(CCN(C)C)c12 [Compound 15b]"
  Observed Result: 90.0
- Compound: "CCN(C)CCc1c[nH]c2cccc(OC(=O)CC(C)(C)C)c12"
  Observed Result: 28.7
- Compound: "CN(C)CCCN1c2ccccc2CCc2ccccc21 [Imipramine HCl, reference compound]"
  Observed Result: 91.1

* * *

Test system: HuH-7 cells
Experiment: Cell viability in HuH-7 cells (CellTiter-Blue)
Assay type: cell-based, human
Conditions: 50 µM, 2 h incubation; mean of triplicates ± standard deviation
Catalogue of compounds with associated Cell Viability in HuH7 at 50 µM, 2 h Incubation
Assay Endpoint: Cell Viability in HuH7 at 50 µM, 2 h Incubation (%)

- Compound: "CCN(C)CCc1cn(C(=O)OCc2ccccc2)c2cccc(O)c12"
  Study Target: "HuH-7 cells"
  Unit Annotation: "%"
  Observed Result: 0.1
- Compound: "CCN(C)CCc1c[nH]c2cccc(OC(=O)c3ccco3)c12.CCN(C)CCc1c[nH]c2cccc(OC(=O)c3ccco3)c12.O=C(O)/C=C/C(=O)O"
  Study Target: "HuH-7 cells"
  Unit Annotation: "%"
  Observed Result: 89.6
- Compound: "CN(C)CCc1cn(C(=O)OCc2ccccc2)c2cccc(O)c12"
  Study Target: "HuH-7 cells"
  Unit Annotation: "%"
  Observed Result: 0.1
- Compound: "O=C1NC(=O)C(c2ccccc2)(c2ccccc2)N1 [Phenytoin, reference compound]"
  Study Target: "HuH-7 cells"
  Unit Annotation: "%"
  Observed Result: 122.9
- Compound: "CCN(C)CCc1c[nH]c2cccc(OCOC(=O)C(C)(C)C)c12 [Compound 15c]"
  Study Target: "HuH-7 cells"
  Unit Annotation: "%"
  Observed Result: 48.3
- Compound: "CCCC(=O)OCOc1cccc2[nH]cc(CCN(C)CC)c12 [Compound 15d]"
  Study Target: "HuH-7 cells"
  Unit Annotation: "%"
  Observed Result: 85.4
- Compound: "CCCCCC(=O)Oc1cccc2[nH]cc(CCN(C)CC)c12 [Compound 8c, reference compound]"
  Study Target: "HuH-7 cells"
  Unit Annotation: "%"
  Observed Result: 30.2
- Compound: "CN(C)CCc1c[nH]c2cccc(OCOC(=O)C(C)(C)C)c12 [Compound 15a]"
  Study Target: "HuH-7 cells"
  Unit Annotation: "%"
  Observed Result: 61.6
- Compound: "CN(C)CCc1c[nH]c2cccc(O)c12 [Psilocin 1, 4-Hydroxy-N,N-dimethyltryptamine, reference compound]"
  Study Target: "HuH-7 cells"
  Unit Annotation: "%"
  Observed Result: 93.7

* * *

Assay: Drug release kinetics (prodrug cleavage) in human blood plasma
Type: in vitro ADME
Conditions: 10 % human plasma in PBS, 37 °C, 50 µM

- Compound: "CCN(C)CCc1c[nH]c2cccc(OC(=O)c3ccccc3)c12"
  Value Prefix: "="
  half-life, s: 90
- Compound: "CCN(C)CCc1c[nH]c2cccc(OC(=O)CC(C)(C)C)c12"
  Value Prefix: ">"
  half-life, s: 480
- Compound: "CCCC(=O)Oc1cccc2[nH]cc(CCN(C)CC)c12"
  Value Prefix: "="
  half-life, s: 38.4
- Compound: "CCN(C)CCc1c[nH]c2cccc(OC(=O)CC(C)C)c12"
  Value Prefix: ">"
  half-life, s: 480
- Compound: "CCCCCC(=O)Oc1cccc2[nH]cc(CCN(C)CC)c12 [Compound 8c, reference compound]"
  Value Prefix: "="
  half-life, s: 39.6
- Compound: "CCN(C)CCc1c[nH]c2cccc(OC(=O)C(C)C)c12"
  Value Prefix: "="
  half-life, s: 26.4
- Compound: "CCN(C)CCc1c[nH]c2cccc(OC(C)=O)c12 [Compound 8a, reference compound]"
  Value Prefix: "="
  half-life, s: 41.4
